B1: tRNA (parent)
chain: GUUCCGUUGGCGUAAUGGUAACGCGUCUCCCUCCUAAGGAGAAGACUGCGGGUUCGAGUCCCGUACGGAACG

# Variants of: B1
# Test summary: yeast fitness relative to wild type (ratio to wild type); higher = fitter; tRNA-Arg(CCU), competitive growth, 37 C, YPD
Variants at the floor of the assay were thinned out.
Entries annotated with measured yeast fitness
Answer with the value's number alone.

# annotated cases, reported yeast fitness shown
# Var, yeast fitness
data = [
    ("C24U U32C C46A A70U", 0.65),
    ("U3C C66A", 0.711),
]

Given the entry G9C C33U , report its measured yeast fitness. 0.536

// lookup yeast fitness for G9C U59A 0.737

Reference for the values: the RNAGym collection of RNA variant scans (doi:10.1126/science.aae0568)
